tested-on: αvβ3 integrin (K562/αvβ3+ cells) (Homo sapiens, UniProt P05106+P06756)
Assay type: binding
condition-notes: versus parent LXW7
Where a SMILES comes first, the peptide text is derived from it. Bridges are numbered along the chain shown (N, C = ends). [ ]: non-standard residue; d: D form. dPen = CC(C)(S)[C@@H](N)C(=O)O
Reported decrease (loss) of binding affinity / potency relative to LXW7 is given for each of the following compounds.
recorded-endpoint: decrease (loss) of binding affinity / potency relative to LXW7

compound	observed-measurement
CC(C)[C@H]1NC(=O)[C@@H](CC(=O)O)NC(=O)[C@H](CC(=O)O)NC(=O)CNC(=O)[C@H](CCCNC(=N)N)NC(=O)CNC(=O)[C@H](N)CSSC(C)(C)[C@H](C(N)=O)NC1=O [peptide 6, cGRGDdv-DPen-NH2] (H-[dC]GRGD[dD][dV][dPen]-NH2; disulfide 1-8 (inferred); N-terminus assumed)	4 to 10 fold
CC(C)[C@H]1NC(=O)[C@@H](CC(=O)O)NC(=O)[C@H](CC(=O)O)NC(=O)CNC(=O)[C@H](CCCNC(=N)N)NC(=O)CNC(=O)[C@@H](N)CSSC[C@H](C(N)=O)NC1=O [peptide 2, CGRGDdvc-NH2] (H-CGRGD[dD][dV][dC]-NH2; disulfide 1-8 (inferred); N-terminus assumed)	10 fold
CC(C)[C@H]1NC(=O)[C@@H](CC(=O)O)NC(=O)[C@H](CC(=O)O)NC(=O)CNC(=O)[C@H](CCCNC(=N)N)NC(=O)CNC(=O)[C@H](N)C(C)(C)SSC(C)(C)[C@H](C(N)=O)NC1=O [peptide 7, DPen-GRGDdv-DPen-NH2] (H-[dPen]GRGD[dD][dV][dPen]-NH2; disulfide 1-8 (inferred); N-terminus assumed)	4 to 10 fold
